Endpoint summary: IC50, system: Platelet-derived growth factor receptor beta (Homo sapiens, UniProt P09619), multiple sources combined.

>>> df
                            smiles_notation  recorded_metric  measured_result
0  Cc1ccc(C(=O)N[C@H]2CCCC[C@@H]2O)cc1NC(=O)c1cncc(-c2ccc(F)cc2F)c1             IC50            73 nM

IN: # IC50 lookup, item C#Cc1cccc(NC(=O)Nc2cccc(Oc3cc(-c4cnn(C)c4)ncn3)c2)c1
OUT: ≤ 10000 nM

IN: # IC50 lookup, item COc1cncc(C(=O)Nc2cccc([C@H](C)Nc3cnc4[nH]nc(C)c4n3)c2)c1
OUT: < 300 nM

IN: # IC50 lookup, item COc1cc(CNC(=O)Nc2cccc(Oc3ccnc(-c4nnco4)c3)c2)cc(OC)c1OC
OUT: > 10000 nM

IN: # IC50 lookup, item CCn1cc2ncc(N[C@@H](C)c3cccc(NC(=O)c4ccc(CN5CCCC5)nc4)c3)nc2n1
OUT: ≥ 1000 nM

IN: # IC50 lookup, item Cc1ccc(F)c(C(=O)Nc2ccc(C#Cc3ccc4nc(N)cn4n3)cc2)c1
OUT: > 10000 nM

IN: # IC50 lookup, item Cc1ccc(C(=O)N[C@H]2CCCC[C@@H]2O)cc1NCc1cncc(-n2nccn2)c1
OUT: 100 nM

IN: # IC50 lookup, item CCn1cc2ncc(N[C@@H](C)c3cccc(NC(=O)Nc4ccc(C5CC5)nc4)c3)nc2n1
OUT: < 300 nM

----------
pIC50: −log10 of the molar value.
Endpoint summary: pIC50, system: Platelet-derived growth factor receptor beta (Homo sapiens, UniProt P09619), multiple sources combined.

                            smiles_notation                       experimental_system  recorded_metric  measured_result
0  Cc1ccc(C(=O)N[C@@H](CO)[C@@H](O)c2ccccc2)cc1C#Cc1cncc(Br)c1  Platelet-derived growth factor receptor beta (Homo sapiens, UniProt P09619)            pIC50             7.31
1  CCOc1ccc(C(=O)Nc2cccc([C@H](C)Nc3cnc4[nH]nc(C)c4n3)c2)cn1  Platelet-derived growth factor receptor beta (Homo sapiens, UniProt P09619)            pIC50           > 6.52
2  Cc1cc(Oc2ccc(NC(=O)Nc3ccc(Cl)c(C(F)(F)F)c3)cc2)nc(-n2ccnc2)n1  Platelet-derived growth factor receptor beta (Homo sapiens, UniProt P09619)            pIC50           < 5.00
3  O=C(Nc1cccc(Oc2cc(-c3ncc[nH]3)ncn2)c1)Nc1ccc(Cl)c(C(F)(F)F)c1  Platelet-derived growth factor receptor beta (Homo sapiens, UniProt P09619)            pIC50           ≥ 5.00
4  COCc1cncc(C(=O)Nc2cccc([C@H](C)Nc3cnc4cnn(C)c4n3)c2)c1  Platelet-derived growth factor receptor beta (Homo sapiens, UniProt P09619)            pIC50           > 6.52
5  Cc1ccn(-c2cccc(N(C)C)c2)c(=O)c1N1CCc2nc(N)ncc2C1  Platelet-derived growth factor receptor beta (Homo sapiens, UniProt P09619)            pIC50           < 6.00

IN: Recorded pIC50 for CCn1cc2ncc(N[C@@H](C)c3cccc(NC(=O)c4ccn(C(C)C)n4)c3)nc2n1 with Platelet-derived growth factor receptor beta (Homo sapiens, UniProt P09619), please?
OUT: 6.00 to 6.52

IN: Recorded pIC50 for CCn1cc2ncc(N[C@@H](C)c3cccc(NC(=O)c4ccc(C)c(Cl)c4)c3)nc2n1 with Platelet-derived growth factor receptor beta (Homo sapiens, UniProt P09619), please?
OUT: > 6.52

IN: Recorded pIC50 for COc1ccc2ncc(N[C@@H](C)c3cccc(NC(=O)c4cncc(C)c4)c3)nc2c1 with Platelet-derived growth factor receptor beta (Homo sapiens, UniProt P09619), please?
OUT: > 6.52

IN: Recorded pIC50 for COC(=O)CCCCS(=O)(CCCCC(=O)OC)=NC(=O)c1cnc(N)c(C#Cc2cccc(NC(=O)c3cccc(Cl)c3)c2)c1 with Platelet-derived growth factor receptor beta (Homo sapiens, UniProt P09619), please?
OUT: 7.68

IN: Recorded pIC50 for C[C@H](Nc1cnc2cnn(C)c2n1)c1cccc(NC(=O)Nc2ccccc2)c1 with Platelet-derived growth factor receptor beta (Homo sapiens, UniProt P09619), please?
OUT: > 6.52

IN: Recorded pIC50 for Cc1ccc(C(=O)N[C@H]2CCCC[C@@H]2O)cc1NC(=O)c1cncc(-c2ccc(C3CC3)cc2)c1 with Platelet-derived growth factor receptor beta (Homo sapiens, UniProt P09619), please?
OUT: 7.64

IN: Recorded pIC50 for CCN(CC)CCCNC(=O)c1[nH]c(/C=C2\C(=O)Nc3ccc(Br)cc32)c(C(C)=O)c1C with Platelet-derived growth factor receptor beta (Homo sapiens, UniProt P09619), please?
OUT: < 4.00

----------
pIC50: −log10 of the molar value.
Endpoint summary: pIC50, system: Platelet-derived growth factor receptor beta (Homo sapiens), multiple sources combined.

Solved cases below.
>>> df
                            smiles_notation                       experimental_system  measured_result
0  CCn1cc2ncc(N[C@@H](C)c3cc(NC(=O)c4cnc(F)c(C)c4)ccc3C)nc2n1  Platelet-derived growth factor receptor beta (Homo sapiens)           > 6.52
1  CCn1cc2ncc(N[C@@H](C)c3cccc(NC(=O)Cc4ccc5c(n4)CCCC5)c3)nc2n1  Platelet-derived growth factor receptor beta (Homo sapiens)           ≤ 6.00
2  COCCOc1ccc(NC(=O)Nc2ccc(Oc3cc(-c4nnco4)ncn3)cc2)cc1C(F)(F)F  Platelet-derived growth factor receptor beta (Homo sapiens)           ≥ 5.00
3  CCn1cc2ncc(N[C@@H](C)c3cccc(NC(=O)Cc4cc(F)cc(CN5CCN(C)CC5)c4)c3)nc2n1  Platelet-derived growth factor receptor beta (Homo sapiens)     6.00 to 6.52
4  COc1cc(C(=O)Nc2cccc([C@H](C)Nc3cnc4cnn(C)c4n3)c2)cnc1C  Platelet-derived growth factor receptor beta (Homo sapiens)           > 6.52

IN: # pIC50 lookup, item CCN(CC)CCNC(=O)c1c(C(C)C)[nH]c(/C=C2\C(=O)Nc3ccc(Br)cc32)c1C(C)C
OUT: 4.65

IN: # pIC50 lookup, item Cc1cccc(C)c1-c1cc(C)c2nc(Nc3cccc(OCCCN4CCN(C)CC4)c3)nnc2c1
OUT: 7.12

IN: # pIC50 lookup, item COC(=O)CCCCS(=O)(CCCCC(=O)OC)=NC(=O)c1cnc(N)c(C#Cc2cccc(NC(=O)c3ccc(F)c(Cl)c3)c2)c1
OUT: 7.47

IN: # pIC50 lookup, item Cc1cncc(C(=O)Nc2cccc([C@H](C)Nc3cnc4[nH]cc(C5CC5)c4n3)c2)c1
OUT: > 6.52

IN: # pIC50 lookup, item C[C@H](Nc1cnc2cnn(C)c2n1)c1cccc(NC(=O)c2ccc(OC(F)F)nc2)c1
OUT: > 6.52

IN: # pIC50 lookup, item Cc1cc(O)cc(C)c1-c1cc(C)c2nc(Nc3ccc(OCCN4CCCC4)cc3)nnc2c1
OUT: 7.39

IN: # pIC50 lookup, item Cc1ccc(C(=O)N[C@H]2CCCC[C@@H]2O)cc1NCc1cncc(C#CC2CC2)c1
OUT: 7.31

IN: # pIC50 lookup, item Cn1cc(-c2cc(Oc3cccc(NC(=O)c4ccccc4C(F)(F)F)c3)ccn2)cn1
OUT: ≥ 5.00

IN: # pIC50 lookup, item CCn1cc2ncc(N[C@@H](C)c3cccc(NC(=O)c4ccc(CN5CC6(C5)CC6(F)F)c(C)c4)c3)nc2n1
OUT: 6.00 to 6.52

----------
pIC50: −log10 of the molar value.
Endpoint summary: pIC50, system: Platelet-derived growth factor receptor beta (Homo sapiens, UniProt P09619), multiple sources combined.

Solved cases below.
>>> df
                            smiles_notation  recorded_metric  measured_result
0  Cn1cc(-c2cc(Oc3cccc(NC(=O)c4ccc5[nH]nnc5c4)c3)ccn2)cn1            pIC50           < 5.00
1  Cn1cc(-c2cc(Oc3cccc(NC(=O)c4ccc(-n5cccc5)cc4)c3)ccn2)cn1            pIC50           < 5.00
2  CCOC(=O)CN1CCN(C(=O)CN2CCN(C(=O)c3cc4nccc(Oc5ccc(NC(=O)Nc6cc(C)ccc6F)c(F)c5)c4s3)CC2)CC1            pIC50             7.89

IN: # pIC50 lookup, item Cc1ccc(C(=O)N[C@H]2CCCC[C@@H]2O)cc1Nc1ccnc(-c2cncc3ccccc23)n1
OUT: 6.92

IN: # pIC50 lookup, item CCn1cc2ncc(N[C@@H](C)c3cc(NC(=O)Cc4cnc(C)c(F)c4)ccc3F)nc2n1
OUT: ≤ 6.00

IN: # pIC50 lookup, item CCn1cc2ncc(N[C@@H](C)c3cccc(NC(=O)c4ccc(CN5CCC6(CC5)COC6)c(C)c4)c3)nc2n1
OUT: 6.00 to 6.52

IN: # pIC50 lookup, item CCn1cc2ncc(N[C@@H](C)c3cccc(NC(=O)Cc4ccc(C5CCC5)cn4)c3)nc2n1
OUT: ≤ 6.00
